GI50 values, listed per item
Tested on: K562
ASSAY_DETAILS: Antiproliferative activity against human leukemia K562 cell line
Format: functional
Lab book: enter the figure in nM, no units written.

{"MOL_SMILES": "O=C(Oc1ccccc1Cl)c1cccnc1Nc1ccnc(C(F)(F)F)c1", "GI50 (nM)": 4570}

Recorded GI50 for O=C(Oc1ccc(Cl)cc1Cl)c1ccccc1Nc1ccnc(C(F)(F)F)c1 , please?
3020

Can you check O=C(Oc1cccnc1)c1ccccc1Nc1ccnc(C(F)(F)F)c1 next?
42.7

Then this compound: O=C(Oc1ccccc1Cl)c1ccccc1Nc1ccnc(C(F)(F)F)c1
51.3

Next up: O=C(Oc1c(Cl)cc(Cl)cc1Cl)c1ccccc1Nc1ccnc(C(F)(F)F)c1
2400

// next record O=C(Oc1ccc(Cl)cc1)c1ccccc1Nc1ccnc(C(F)(F)F)c1
3630

Next record, please: O=C(Oc1ccccc1Cl)c1ccccc1Nc1cccc(C(F)(F)F)c1
2690

What do you have for COc1cccc(OC(=O)c2ccccc2Nc2ccnc(C(F)(F)F)c2)c1 ?
741

Similarly, O=C(Oc1cccc(Cl)c1)c1ccccc1Nc1ccnc(C(F)(F)F)c1 ?
3240

Can you check O=C(Oc1cccnc1)c1cccnc1Nc1ccnc(C(F)(F)F)c1 next?
5130
